Hi there, I'd appreciate the recorded pIC50 for every entry that follows.
Target: human PDE5 (Homo sapiens)
Experiment: Inhibition of the type 5 phosphodiesterase (PDE5) activity, modified SPA test with platelet lysate
Details: PDE5 from human platelet lysate, 0.5 μM cGMP
pIC50 field: float, defined as -log10 of concentration (mol/L).

Prompt line: Tell us which pIC50 value is on record for "COc1ccc(-c2ncnc3c(C(=O)N[C@H]4CC[C@H](NC(=O)C5CC5)CC4)c[nH]c23)c(OCC2CC2)c1"
Response line: 9.52

Prompt line: Tell us which pIC50 value is on record for "COCCNC(=O)[C@H]1CC[C@H](NC(=O)c2c[nH]c3c(-c4cc(F)ccc4OCC4CC4)ncnc23)CC1"
Response line: 8.28

Prompt line: Tell us which pIC50 value is on record for "COCCOc1ccc2c(c1-c1ncnc3c(C(=O)N[C@H]4CC[C@@H](NC(=O)C5CC5)CC4)c[nH]c13)OCO2"
Response line: 8.23

Prompt line: Tell us which pIC50 value is on record for "COCCOc1cc(OC)ccc1-c1ncnc2c(C(=O)N[C@H]3CC[C@@H](NC(=O)COC)CC3)c[nH]c12"
Response line: 7.77

Prompt line: Tell us which pIC50 value is on record for "CC(=O)N[C@H]1CC[C@H](NC(=O)c2c[nH]c3c(-c4c(OCC5CC5)ccc5c4OCO5)ncnc23)CC1"
Response line: 9.79

Prompt line: Tell us which pIC50 value is on record for "COCC(=O)N1CCC[C@@H](NC(=O)c2c[nH]c3c(-c4c(OCC5CC5)ccc5c4OCO5)ncnc23)C1"
Response line: 9.37

Prompt line: Tell us which pIC50 value is on record for "CC(=O)N1CCC[C@H](NC(=O)c2c[nH]c3c(-c4c(OCC5CC5)ccc5c4OCO5)ncnc23)C1"
Response line: 8.86

---

Biological target: human PDE5 (Homo sapiens, UniProt O76074)
Assay: Inhibition of the type 5 phosphodiesterase (PDE5) activity, modified SPA test with platelet lysate
Conditions: PDE5 from human platelet lysate, 0.5 μM cGMP
Rule: IC50 below 0.6 nM gives Yes, anything at or above gives No.

Prompt line: Quick check: does "COc1ccc(-c2ncnc3c(C(=O)N[C@H]4CC[C@H](C(=O)NC5CC5)CC4)c[nH]c23)c(OCC2CC2)c1" have IC50 under 0.6 nM?
Response line: Yes

Prompt line: Quick check: does "CCOC(=O)N1CCC(CNC(=O)c2c[nH]c3c(-c4c(OCC5CC5)ccc5c4OCO5)ncnc23)CC1" have IC50 under 0.6 nM?
Response line: Yes

Prompt line: Quick check: does "CC(=O)N[C@H]1CC[C@H](NC(=O)c2c[nH]c3c(-c4ccc(F)cc4OCC4CC4)ncnc23)CC1" have IC50 under 0.6 nM?
Response line: No

Prompt line: Quick check: does "CCOC(=O)N[C@H]1CC[C@H](NC(=O)c2c[nH]c3c(-c4ccccc4OCC4CC4)ncnc23)CC1" have IC50 under 0.6 nM?
Response line: No

Prompt line: Quick check: does "CC(=O)N[C@H]1CC[C@H](NC(=O)c2c[nH]c3c(-c4c(OCC5CCC5)ccc5c4OCO5)ncnc23)CC1" have IC50 under 0.6 nM?
Response line: Yes

Prompt line: Quick check: does "O=C(CO)N[C@H]1CC[C@@H](NC(=O)c2c[nH]c3c(-c4c(OCC5CC5)ccc5c4OCO5)ncnc23)CC1" have IC50 under 0.6 nM?
Response line: Yes

Prompt line: Quick check: does "COc1cc(-c2ncnc3c(C(=O)N[C@@H]4CCN(C(=O)CO)C4)c[nH]c23)c(OCC2CC2)cc1F" have IC50 under 0.6 nM?
Response line: No

These entries and their values trace back to patent US8445501B2.
